- method_summary: viability loss with induced miR-34 in A549 – imaging, A549 dox-inducible miR-34, nuclei and caspase counts, primary screen (AID 1347080); further: test concentration not given here
- run_conditions: A549 miR-34 inducible, Hoechst nuclei count, 48 h; measured here: total cells with miR-34 induction; stronger effect = lower value

- compound: "CC(C)OC(=O)OCOP(=O)(COC(C)Cn1cnc2c(N)ncnc21)OCOC(=O)OC(C)C (stereo not drawn)"
  cell count: 7870
- compound: "Nc1nccc2c1ncn2C1C=C(CO)C(O)C1O (stereo not drawn)"
  cell count: 4640
- compound: "COc1ccc2nc(Cn3cnc4cc(F)ccc4c3=O)[nH]c2c1"
  cell count: 7880
- compound: "Nc1ncnc2c1c(-c1ccc(Oc3ccccc3)cc1)cn2C1CCCC1"
  cell count: 4440
- compound: "c1ccc(-c2[nH]ncc2-c2ccnc3ccccc23)nc1"
  cell count: 4970
- compound: "CCOC(=O)C(CCc1ccccc1)NC(C)C(=O)N1Cc2ccccc2CC1C(=O)O (stereo not drawn)"
  cell count: 8090
- compound: "CCCCCCCC/C=C\\CCCCCCCCOC[C@H](COP(=O)([O-])OCC[N+](C)(C)C)OC(C)=O"
  cell count: 6070
- compound: "COc1ccc(C(=O)Nc2c(Cl)cncc2Cl)cc1OC1CCCC1"
  cell count: 7850
